# Test: TED14856 Part A: plasma pharmacokinetics of compound (1)
# Format: in vivo, human
# Run Parameters: human, plasma, oral, 20 mg, single 20 mg, Cycle1 Day 1, fasted, N=3; read-out: AUC0-24 (Geometric Mean)
Reported Endpoint: AUC(0-t) (ng·h/mL)
Return type: number; implicit unit ng·h/mL.

Reported AUC(0-t) for O=C(O)c1ccc2c(c1)CCCC(c1ccc(Cl)cc1Cl)=C2c1ccc(O[C@H]2CCN(CCCF)C2)cc1 [compound (1)] : what is it? 924

---

# Test: TED14856 Part A: plasma pharmacokinetics of compound (1)
# Format: in vivo, human
# Run Parameters: human, plasma, oral, 400 mg, single 400 mg, Cycle1 Day 1, fasted, N=3; read-out: Cmax (Geometric Mean)
Reported Endpoint: Cmax (ng/mL)
Return type: number; implicit unit ng/mL.

Reported Cmax for O=C(O)c1ccc2c(c1)CCCC(c1ccc(Cl)cc1Cl)=C2c1ccc(O[C@H]2CCN(CCCF)C2)cc1 [compound (1)] : what is it? 4120

---

# Test: TED14856 Part A: plasma pharmacokinetics of compound (1)
# Type: in vivo, human
# Run Parameters: human, plasma, oral, 200 mg, repeated 200 mg once daily, Cycle1 Day 22, fasted, N=3; read-out: AUC0-24 (Mean ± SD)
Reported Endpoint: AUC(0-t) (ng·h/mL)
Return type: number; implicit unit ng·h/mL.

Reported AUC(0-t) for O=C(O)c1ccc2c(c1)CCCC(c1ccc(Cl)cc1Cl)=C2c1ccc(O[C@H]2CCN(CCCF)C2)cc1 : what is it? 13900

---

# Test: TED14856 Part A: plasma pharmacokinetics of compound (1)
# Type: in vivo, human
# Run Parameters: human, plasma, oral, 200 mg, single 200 mg, Cycle1 Day 1, fasted, N=4; read-out: AUC0-24 (Mean ± SD)
Reported Endpoint: AUC(0-t) (ng·h/mL)
Return type: number; implicit unit ng·h/mL.

Reported AUC(0-t) for O=C(O)c1ccc2c(c1)CCCC(c1ccc(Cl)cc1Cl)=C2c1ccc(O[C@H]2CCN(CCCF)C2)cc1 : what is it? 13600

---

# Test: TED14856 Part A: plasma pharmacokinetics of compound (1)
# Assay type: in vivo, human
# Run Parameters: human, plasma, oral, 20 mg, repeated 20 mg once daily, Cycle1 Day 22, fasted, N=3; read-out: tmax (median)
Reported Endpoint: Tmax (h)
Return type: number; implicit unit h.

Reported Tmax for O=C(O)c1ccc2c(c1)CCCC(c1ccc(Cl)cc1Cl)=C2c1ccc(O[C@H]2CCN(CCCF)C2)cc1 : what is it? 2.17

---

# Test: TED14856 Part A: plasma pharmacokinetics of compound (1)
# Type: in vivo, human
# Run Parameters: human, plasma, oral, 400 mg, single 400 mg, Cycle1 Day 1, fasted, N=3; read-out: AUC0-24 (Mean ± SD)
Reported Endpoint: AUC(0-t) (ng·h/mL)
Return type: number; implicit unit ng·h/mL.

Reported AUC(0-t) for O=C(O)c1ccc2c(c1)CCCC(c1ccc(Cl)cc1Cl)=C2c1ccc(O[C@H]2CCN(CCCF)C2)cc1 : what is it? 40400

---

# Test: TED14856 Part A: plasma pharmacokinetics of compound (1)
# Assay type: in vivo, human
# Run Parameters: human, plasma, oral, 600 mg, single 600 mg, Cycle1 Day 1, fasted, N=3; read-out: tmax (median)
Reported Endpoint: Tmax (h)
Return type: number; implicit unit h.

Reported Tmax for O=C(O)c1ccc2c(c1)CCCC(c1ccc(Cl)cc1Cl)=C2c1ccc(O[C@H]2CCN(CCCF)C2)cc1 : what is it? 3.03

---

# Test: TED14856 Part A: plasma pharmacokinetics of compound (1)
# Format: in vivo, human
# Run Parameters: human, plasma, oral, 200 mg, single 200 mg, Cycle1 Day 1, fasted, N=4; read-out: Vss/F (Geometric Mean)
Reported Endpoint: Vd/F (L)
Return type: number; implicit unit L.

Reported Vd/F for O=C(O)c1ccc2c(c1)CCCC(c1ccc(Cl)cc1Cl)=C2c1ccc(O[C@H]2CCN(CCCF)C2)cc1 : what is it? 173

---

# Test: TED14856 Part A: plasma pharmacokinetics of compound (1)
# Assay type: in vivo, human
# Run Parameters: human, plasma, oral, 150 mg, repeated 150 mg once daily, Cycle1 Day 22, fasted, N=2; read-out: Cmax (Mean ± SD)
Reported Endpoint: Cmax (ng/mL)
Return type: number; implicit unit ng/mL.

Reported Cmax for O=C(O)c1ccc2c(c1)CCCC(c1ccc(Cl)cc1Cl)=C2c1ccc(O[C@H]2CCN(CCCF)C2)cc1 : what is it? 2390

---

# Test: TED14856 Part A: plasma pharmacokinetics of compound (1)
# Assay type: in vivo, human
# Run Parameters: female, human, plasma, oral; across the 20-600 mg range; read-out: mean apparent volume of distribution
Reported Endpoint: Vd

Reported Vd for O=C(O)c1ccc2c(c1)CCCC(c1ccc(Cl)cc1Cl)=C2c1ccc(O[C@H]2CCN(CCCF)C2)cc1 : what is it? ~120 L

---

# Test: TED14856 Part A: plasma pharmacokinetics of compound (1)
# Type: in vivo, human
# Run Parameters: female, human, plasma, oral, 20 to 600 mg once a day, fasting, Day 1 and Day 22 Cycle 1; read-out: median time to achieve maximum concentration (tmax)
Reported Endpoint: Tmax

Reported Tmax for O=C(O)c1ccc2c(c1)CCCC(c1ccc(Cl)cc1Cl)=C2c1ccc(O[C@H]2CCN(CCCF)C2)cc1 [compound (1)] : what is it? ~3 h

---

# Test: TED14856 Part A: plasma pharmacokinetics of compound (1)
# Format: in vivo, human
# Run Parameters: human, plasma, oral, 400 mg, repeated 400 mg once daily, Cycle1 Day 22, fasted, N=3; read-out: AUC0-24 (Geometric Mean)
Reported Endpoint: AUC(0-t) (ng·h/mL)
Return type: number; implicit unit ng·h/mL.

Reported AUC(0-t) for O=C(O)c1ccc2c(c1)CCCC(c1ccc(Cl)cc1Cl)=C2c1ccc(O[C@H]2CCN(CCCF)C2)cc1 [compound (1)] : what is it? 29500

---

# Test: TED14856 Part A: plasma pharmacokinetics of compound (1)
# Format: in vivo, human
# Run Parameters: human, plasma, oral, 400 mg, repeated 400 mg once daily, Cycle1 Day 22, fasted, N=3; read-out: AUC0-24 (Mean ± SD)
Reported Endpoint: AUC(0-t) (ng·h/mL)
Return type: number; implicit unit ng·h/mL.

Reported AUC(0-t) for O=C(O)c1ccc2c(c1)CCCC(c1ccc(Cl)cc1Cl)=C2c1ccc(O[C@H]2CCN(CCCF)C2)cc1 [compound (1)] : what is it? 36800

---

# Test: TED14856 Part A: plasma pharmacokinetics of compound (1)
# Type: in vivo, human
# Run Parameters: human, plasma, oral, 400 mg, single 400 mg, Cycle1 Day 1, fasted, N=3; read-out: Vss/F (Geometric Mean)
Reported Endpoint: Vd/F (L)
Return type: number; implicit unit L.

Reported Vd/F for O=C(O)c1ccc2c(c1)CCCC(c1ccc(Cl)cc1Cl)=C2c1ccc(O[C@H]2CCN(CCCF)C2)cc1 [compound (1)] : what is it? 112

---

# Test: TED14856 Part A: plasma pharmacokinetics of compound (1)
# Type: in vivo, human
# Run Parameters: human, plasma, oral, 150 mg, single 150 mg, Cycle1 Day 1, fasted, N=3; read-out: Cmax (Geometric Mean)
Reported Endpoint: Cmax (ng/mL)
Return type: number; implicit unit ng/mL.

Reported Cmax for O=C(O)c1ccc2c(c1)CCCC(c1ccc(Cl)cc1Cl)=C2c1ccc(O[C@H]2CCN(CCCF)C2)cc1 [compound (1)] : what is it? 884

---

# Test: TED14856 Part A: plasma pharmacokinetics of compound (1)
# Type: in vivo, human
# Run Parameters: human, plasma, oral, 200 mg, repeated 200 mg once daily, Cycle1 Day 22, fasted, N=3; read-out: Cmax (Geometric Mean)
Reported Endpoint: Cmax (ng/mL)
Return type: number; implicit unit ng/mL.

Reported Cmax for O=C(O)c1ccc2c(c1)CCCC(c1ccc(Cl)cc1Cl)=C2c1ccc(O[C@H]2CCN(CCCF)C2)cc1 : what is it? 2030

---

# Test: TED14856 Part A: plasma pharmacokinetics of compound (1)
# Type: in vivo, human
# Run Parameters: human, plasma, oral, 400 mg, repeated 400 mg once daily, Cycle1 Day 22, fasted, N=3; read-out: tmax (median)
Reported Endpoint: Tmax (h)
Return type: number; implicit unit h.

Reported Tmax for O=C(O)c1ccc2c(c1)CCCC(c1ccc(Cl)cc1Cl)=C2c1ccc(O[C@H]2CCN(CCCF)C2)cc1 [compound (1)] : what is it? 2.95

---

# Test: TED14856 Part A: plasma pharmacokinetics of compound (1)
# Type: in vivo, human
# Run Parameters: human, plasma, oral, 200 mg, repeated 200 mg once daily, Cycle1 Day 22, fasted, N=3; read-out: tmax (median)
Reported Endpoint: Tmax

Reported Tmax for O=C(O)c1ccc2c(c1)CCCC(c1ccc(Cl)cc1Cl)=C2c1ccc(O[C@H]2CCN(CCCF)C2)cc1 [compound (1)] : what is it? 2.07 h
